Entry source: paper PMC3528769

study_system: Cq-FABP (Cherax quadricarinatus, UniProt L0I6Z9)
Sequence (L0I6Z9 entry or part of it): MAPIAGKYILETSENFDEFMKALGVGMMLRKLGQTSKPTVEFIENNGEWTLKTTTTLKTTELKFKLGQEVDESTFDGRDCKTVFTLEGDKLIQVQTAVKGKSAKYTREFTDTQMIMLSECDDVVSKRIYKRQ
run_description: ANS fluorescence intensity titration and equilibrium displacement of ANS by fatty acids
Assay type: binding
condition_parameters: y-intercept of Kd app,ANS versus [PA] linear regression (Fig. 3B); read-out: Kd,ANS
parameter: Kd (µM)
Numbers only, in µM.

Request: Test system Cq-FABP (Cherax quadricarinatus, UniProt L0I6Z9); read-out Kd; what value for O=S(=O)(O)c1cccc2cccc(Nc3ccccc3)c12 [ANS, 8-Anilino-1-naphthalenesulfonate] ?
Result: 27.8

---

study_system: Cq-FABP (Cherax quadricarinatus, UniProt L0I6Z9)
run_description: Steady-state FRET between the single Trp (W49) and ANS, Trp quenching and recovery by PA
Assay type: binding
condition_parameters: Trp fluorescence intensity parameter, y-intercept of Kd app,PA versus [ANS] (Fig. 5A); read-out: Kd,PA
parameter: pKd
Numbers only, as −log10 of the molar value.

Request: Recorded pKd of CCCCCCCCCCCCCCCC(=O)O , please.
Result: 5.83
